- TARGET: IRAK4 (Homo sapiens, UniProt Q9NWZ3)
- Sequence (Q9NWZ3 whole entry): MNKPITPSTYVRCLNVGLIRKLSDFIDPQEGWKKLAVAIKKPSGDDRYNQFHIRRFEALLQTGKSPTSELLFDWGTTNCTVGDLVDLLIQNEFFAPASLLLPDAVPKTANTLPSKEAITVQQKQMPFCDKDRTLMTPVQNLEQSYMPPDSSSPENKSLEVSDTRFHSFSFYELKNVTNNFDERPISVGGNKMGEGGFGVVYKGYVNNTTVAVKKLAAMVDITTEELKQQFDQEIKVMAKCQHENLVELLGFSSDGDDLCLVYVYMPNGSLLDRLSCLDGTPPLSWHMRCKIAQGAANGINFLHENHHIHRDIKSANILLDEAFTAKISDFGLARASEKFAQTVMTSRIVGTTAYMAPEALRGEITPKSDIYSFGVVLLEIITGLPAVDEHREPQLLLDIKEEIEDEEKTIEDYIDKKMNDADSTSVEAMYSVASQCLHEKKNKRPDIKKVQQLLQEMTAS
- PROTOCOL_DETAILS: biochemical
pIC50: −log10 of the molar value.
# cutoff 8 applies to pIC50; >= gives satisfied, < gives not satisfied

[
  {
    "MOLECULE": "COc1cc2nc(C3CCOCC3)cn2cc1C(=O)Nc1ccccc1F",
    "ASSIGNED_CLASS": "not satisfied"
  },
  {
    "MOLECULE": "COc1cc2nc(C34CCOC(C)(C3)C4)cn2cc1C(=O)Nc1cccc(C(F)F)n1",
    "ASSIGNED_CLASS": "satisfied"
  },
  {
    "MOLECULE": "CC(C)Oc1cc2nc([C@]34CC[C@](C)(C3)OC4)cn2cc1C(=O)Nc1cccc(C(F)F)n1 (single isomer, unassigned)",
    "ASSIGNED_CLASS": "satisfied"
  },
  {
    "MOLECULE": "COc1cccc(NC(=O)c2cn3cc(C45COC(C)(C4)C5)nc3cc2OC2CCC2)n1",
    "ASSIGNED_CLASS": "satisfied"
  },
  {
    "MOLECULE": "O=C(Nc1cccc(C(F)F)n1)c1cn2cc(C3CC3)nc2cc1OC1CCCC1",
    "ASSIGNED_CLASS": "satisfied"
  }
]
